# subject.of.test: human E-Selectin-IgG-chimera (Homo sapiens, UniProt P16581)
# Construct: fused on or other part: human IgG Fc part, a tag and dimerising handle that is captured by the goat anti-human Fc antibody on the plate
# Sequence (P16581 22-175 limits assumed): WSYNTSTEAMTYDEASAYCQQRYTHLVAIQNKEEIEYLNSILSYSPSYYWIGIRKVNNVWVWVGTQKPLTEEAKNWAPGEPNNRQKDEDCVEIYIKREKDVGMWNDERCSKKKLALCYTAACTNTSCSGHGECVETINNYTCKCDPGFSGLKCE
# assay.comment: Sialyl Lewis x Tyrosine Sulfate Assay (sLex TSA), E-selectin
# Type: binding
# assay.context: compound at 100 μM
property: E-Selectin [% Inhib.] (%)

Some solved entries appear below for comparison.
{"compound": "Cc1cccc(NC(=O)Cc2ccc(O)c(O)c2O)c1", "property": "E-Selectin [% Inhib.]", "result.units": "%", "measured.result": 70}
{"compound": "O=C(CCc1ccc(O)c(O)c1O)Nc1cccc(C(=O)O)c1", "property": "E-Selectin [% Inhib.]", "result.units": "%", "measured.result": 38}
{"compound": "Cc1cccc(NC(=O)CCc2ccc(O)c(O)c2O)c1", "property": "E-Selectin [% Inhib.]", "result.units": "%", "measured.result": 29}
{"compound": "Cc1oc(-c2ccc(NC(=O)Cc3cc(O)c(O)c(O)c3)cc2)cc1C(=O)O", "property": "E-Selectin [% Inhib.]", "result.units": "%", "measured.result": 50}
{"compound": "Cc1ccc(C(=O)O)cc1NC(=O)Cc1cc(O)c(O)c(O)c1", "property": "E-Selectin [% Inhib.]", "result.units": "%", "measured.result": 53}

(a) O=C(Cc1ccc(O)c(O)c1O)NCC1CCC(C(=O)O)CC1 (stereo not drawn)
(b) O=C(O)Cc1ccc(-c2ccccc2NC(=O)CCc2ccc(O)c(O)c2O)s1
QUERY: // select label with min value of measured E-Selectin [% Inhib.] from [ a , b ] Selection: enter the item's label.
RESULT: a
(a: 21%, b: 52%)

(P) O=C(O)Cc1ccc(-c2ccccc2NC(=O)Cc2cc(O)c(O)c(O)c2)s1
(Q) Cc1c(NC(=O)Cc2ccc(O)c(O)c2O)cccc1C(=O)O
QUERY: Exercise: compare P and Q ; which one has the greater E-Selectin [% Inhib.]? Selection: enter the item's label.
RESULT: P

(I) O=C(Cc1ccc(O)c(O)c1O)NCc1ccc(C(=O)O)cc1
(II) O=C(CCc1cc(O)c(O)c(O)c1)Nc1cccc(C(=O)O)c1
QUERY: Exercise: compare I and II ; which one has the greater E-Selectin [% Inhib.]? Selection: enter the item's label.
RESULT: II

All values here come from patent US8367677B2.
